Measured EC50 of individual entries
# TESTED TARGET: cloned human mu opioid receptor (Homo sapiens, UniProt P35372)
# Sequence (P35372 whole entry): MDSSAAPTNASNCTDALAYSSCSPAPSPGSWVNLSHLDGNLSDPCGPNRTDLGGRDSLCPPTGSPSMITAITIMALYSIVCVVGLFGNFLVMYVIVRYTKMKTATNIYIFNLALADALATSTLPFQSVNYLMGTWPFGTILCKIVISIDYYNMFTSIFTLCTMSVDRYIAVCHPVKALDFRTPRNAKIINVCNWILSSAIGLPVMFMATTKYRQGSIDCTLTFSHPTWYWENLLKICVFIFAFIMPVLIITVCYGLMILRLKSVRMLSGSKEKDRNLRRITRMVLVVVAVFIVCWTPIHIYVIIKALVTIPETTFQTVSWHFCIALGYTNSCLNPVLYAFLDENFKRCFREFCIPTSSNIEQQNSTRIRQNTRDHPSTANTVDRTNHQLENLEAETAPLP
# ASSAY OVERVIEW: biochemical
Where a SMILES comes first, the peptide text is derived from it.

Here are 4 compounds together with their reported answers.
| COMPOUND | TESTED TARGET | EC50 |
| --- | --- | --- |
| NC(=O)[C@@H]1CCCCNC(=O)CC[C@@H](NC(=O)[C@@H](N)Cc2ccc(O)cc2)C(=O)N[C@@H](Cc2ccccc2)C(=O)N[C@@H](Cc2ccccc2)C(=O)N1 [Compound 2, Tyr-c[D-Glu-Phe-Phe-Lys]-NH2] | cloned human mu opioid receptor (Homo sapiens, UniProt P35372) | 0.99 nM |
| NC(=O)[C@@H]1CCC(=O)NCCCC[C@@H](NC(=O)[C@@H](N)Cc2ccc(O)cc2)C(=O)N[C@@H](Cc2c[nH]c3ccccc23)C(=O)N[C@@H](Cc2ccccc2)C(=O)N1 [Compound 1, Tyr-c[D-Lys-Trp-Phe-Glu]-NH2] | cloned human mu opioid receptor (Homo sapiens, UniProt P35372) | 0.15 nM |
| NC(=O)[C@@H]1CC(=O)NCCCC[C@@H](NC(=O)[C@@H](N)Cc2ccc(O)cc2)C(=O)N[C@@H](Cc2c[nH]c3ccccc23)C(=O)N[C@@H](Cc2ccccc2)C(=O)N1 [Compound 5, Tyr-c[D-Lys-Trp-Phe-Asp]-NH2] | cloned human mu opioid receptor (Homo sapiens, UniProt P35372) | 0.22 nM |
| N[C@@H](Cc1ccc(O)cc1)C(=O)N[C@@H]1CCCCNC(=O)[C@H](Cc2ccccc2)NC(=O)[C@H](Cc2ccccc2)NC1=O [ck2, Tyr-c[D-Lys-Phe-Phe], reference compound] (HELM PEPTIDE1{Y.[dK].F.F}$PEPTIDE1,PEPTIDE1,2:R3-4:R2$$$V2.0; bridges inferred) | cloned human mu opioid receptor (Homo sapiens, UniProt P35372) | 0.15 nM |

Turning now to a further record.
// EC50 value for N[C@@H](Cc1ccc(O)cc1)C(=O)N[C@@H]1CCCCNC(=O)[C@H](Cc2ccccc2)NC(=O)[C@H](Cc2c[nH]c3ccccc23)NC1=O [ck1, Tyr-c[D-Lys-Trp-Phe], reference compound] (HELM PEPTIDE1{Y.[dK].W.F}$PEPTIDE1,PEPTIDE1,2:R3-4:R2$$$V2.0; bridges inferred) : 0.21 nM
